A compilation of pKi values for Tyrosine-protein kinase Lck (Homo sapiens) from the published literature.
# pKi: negative log10 of molar concentration; output just the value

CN(C)CC[C@@H](c1ccccc1)n1cc(NC(=O)c2n[nH]c3c2CCC(C)(C)C3)cn1: 6.47
CC1(C)CCc2c(C(=O)Nc3cnn([C@@H](CCS(C)(=O)=O)c4ccccc4)c3)n[nH]c2C1: 5.74
CN(C)Cc1ccc([C@H]2C[C@@H]2C(=O)Nc2nc3ccc(-c4cn[nH]c4)cc3s2)cc1: 7.26
CC1(C)CCc2c(C(=O)Nc3cnn(Cc4ccccc4)c3)n[nH]c2C1: 5.74
c1ccc(-c2c(-c3ccc(OCCN4CCCC4)cc3)[nH]c3ncnc(NCC4SCCS4)c23)cc1: 6.86

# ---- query molecule ----
For this molecule ( Cc1cc(Nc2nc3ccc(C(=O)Nc4c(C)cccc4Cl)cc3s2)nc(NCC2CCCO2)n1 (centres undefined) ), measured pKi is 9.27

====

Collected from the literature: Ki of various molecules toward Tyrosine-protein kinase Lck (Homo sapiens).

Sample answers from the record:
Cc1ccc2c(c1)N(Cc1cc(F)cc3c1OCOC3)C(=O)/C2=N\O: > 30000 nM
CC1(C)CCc2c(C(=O)Nc3cnn([C@@H](CS(C)(=O)=O)c4ccccc4)c3)n[nH]c2C1: > 2500 nM

Now consider the entry below.
Query `CC(=O)Nc1cc(N)c(C#N)c(-c2ccccc2)n1` yields Ki of > 2700 nM
